Test system: human thrombocytes
experimentNotes: Inhibition of arachidonic acid induced aggregation of human thrombocytes
Type: cell-based
runConditions: arachidonic acid induced aggregation of human thrombocytes
pIC50: recorded values
Please treat pIC50 as minus the base-10 logarithm of the molar concentration.

O=C(O)c1cccc(C=C2C[C@H]3C[C@@H](O)[C@H](/C=C/[C@@H](O)C4CCCCC4)[C@H]3C2)c1: 7.10
CCCCC[C@H](O)/C=C/[C@@H]1[C@H]2C/C(=C/CCCC(=O)O)O[C@H]2C[C@H]1O [Prostacyclin, reference compound]: 8.11
O=C(O)c1cccc(/C=C2\C[C@H]3C[C@@H](O)[C@H](/C=C/[C@@H](O)C4CCCCC4)[C@H]3C2)c1: 7.15

The recorded pIC50 with human thrombocytes for CCCCC[C@H](O)/C=C/[C@@H]1[C@H]2CC(=Cc3cccc(C(=O)O)c3)C[C@H]2C[C@H]1O [Compound A, reference compound] was 6.92

The recorded pIC50 with human thrombocytes for CCCCCC(O)C=CC1C(O)CC2OC(CCCCC(=O)O)CC21 (centres unmarked) [5,6-Dihydroprostacyclin, 5,6-dihydroprostacyclin, reference compound] was 6.74

----------
Tested on: human thrombocytes
experimentNotes: Inhibition of arachidonic acid induced aggregation of human thrombocytes
Format: cell-based
runConditions: in comparison to prostacyclin = 1.0
measuredEndpoint: relative activity
// no unit, no text: just the number

CCCCC[C@H](O)/C=C/[C@@H]1[C@H]2CC(=Cc3cccc(C(=O)O)c3)C[C@H]2C[C@H]1O [Compound A, reference compound]: 0.065
CCCCCC(O)C=CC1C(O)CC2OC(CCCCC(=O)O)CC21 (stereo not shown) [5,6-Dihydroprostacyclin, 5,6-dihydroprostacyclin, reference compound]: 0.043
O=C(O)c1cccc(/C=C2\C[C@H]3C[C@@H](O)[C@H](/C=C/[C@@H](O)C4CCCCC4)[C@H]3C2)c1 [Example 2]: 0.11

Value of relative activity reported for the compound O=C(O)c1cccc(C=C2C[C@H]3C[C@@H](O)[C@H](/C=C/[C@@H](O)C4CCCCC4)[C@H]3C2)c1 [Example 1e] is 0.098
